Tested on: PC-3 prostate
Experiment: NCI-60 one-dose screen, 48 h (100 = growth as untreated, 0 = no growth, -100 = all killed)
Conditions: 10 µM unless noted
The panel holds about 83,000 compounds, 20% with a hit somewhere; the sample as a whole holds those more often. The source made the active and inactive calls. The calls were made as follows: active = growth percent below 10; inactive = the rest.
Assignment: determine reported growth for the given compounds.

So what's the measured growth for this one? COc1ccc(-c2nc(SCCC(C)C)nc(Nc3ccc(C(=O)O)cc3)c2C#N)cc1
58.4% (inactive)

Same read-out for CCN(CC)c1cc(C)c(Cc2c(OC)ccc3ccccc23)cc1C ?
83.9% (inactive)

Same read-out for O=[N+]([O-])c1ccc(Sc2nc(Cl)nc(NC3CCCC3)n2)cc1 ?
-89.5% [100 µM] (active)

Same read-out for CCOC(=O)c1ccc2c(c1)[n+](=O)c(C(=O)c1ccc3ccccc3c1)c(C(F)(F)F)n2[O-] ?
-99.2% (active)

Same read-out for C[C@H](NC(=O)c1snnc1C1CC1)c1c(F)cccc1Cl ?
98.9% (inactive)

---

System: UO-31 renal
Assay: NCI-60 one-dose screen, 48 h
Conditions: 10 µM unless noted
This is part of a sample that, as a whole, favours compounds with a hit. Of some 83,000 tested, about 20% had one in any assay. Calls of active or inactive are those of the source. How the source made its calls: active means growth percent below 10; inactive means the rest.
Reply using exactly one outcome from active, inactive

What call does the record list for COc1cc(NCCC2CCCCN2)c2ncccc2c1OC (stereo not given) ?
inactive

Same read-out for COc1ccc(C(=O)O)cc1.[Ag] ?
inactive

Same read-out for CC(=O)C1CCC2C3CC(C)=C4CC(O)CCC4(C)C3CCC12C (stereo not given) ?
inactive

Same read-out for COc1cc(-c2nn(C(=O)NCCN3CCN(C)CC3)cc2-c2ccncc2)ccc1Cl ?
inactive

Same read-out for COc1cc(/C=C/c2cc(/C=C/c3ccc(O)c(OC)c3)n(C(=O)Nc3ccc(F)c(Cl)c3)n2)ccc1O ?
active

Same read-out for CCCCCc1c(C)[nH]c(/C=C2\N=C(c3ccc[nH]3)C=C2Oc2ccc(OC)cc2)c1C ?
active

Same read-out for CCOC(=O)c1ccc2c(c1)nc(-c1ccc(Cl)cc1)n2-c1cc(C(C)(C)C)[nH]n1 ?
inactive

Same read-out for COc1ccc(CNc2c3ccccc3nc3ccccc23)cc1F ?
inactive

Same read-out for COc1ccccc1/C=C/C(=O)CCC(=O)O ?
inactive

Same read-out for COc1ccc(-c2cc(-c3ccc(OC)cc3)c3sc(=O)[nH]c3n2)cc1 ?
inactive

Same read-out for Nc1c(N)c2ccccc2c2ccccc12 ?
inactive

Same read-out for O=c1c2cc(Cl)ccc2oc2ccc(OCCCCCN3CCCCC3)cc12 ?
inactive

Same read-out for COc1cc2ccc(C(C)=O)cc2cc1OC ?
inactive

Same read-out for COc1ccc2nc3ccccc3c(NCc3ccc(Cl)cc3)c2c1 ?
active

Same read-out for CCCCCCCCCCCCCCCC1=NC(C)(C)CN1C(C)C ?
active

Same read-out for O=C(CCCCCCN1CC(=O)N2[C@@H](c3ccc(Cl)c(Cl)c3)c3[nH]c4ccccc4c3C[C@H]2C1=O)NO ?
inactive

Same read-out for O=C(CCl)N1c2ccccc2Oc2ccc3ccccc3c21 ?
active

Same read-out for CCCCc1nc(Cl)c(C2CC(c3ccc(S(N)(=O)=O)cc3)=NN2c2ccc(C#N)cc2)[nH]1 (stereo not given) ?
inactive

Same read-out for CO[C@H](C(=O)[C@@H](O)[C@@H](C)O)[C@@H]1Cc2cc3cc(O[C@H]4C[C@@H](O[C@H]5C[C@@H](O)[C@H](O)C(C)O5)[C@H](O)C(C)O4)c(C)c(O)c3c(O)c2C(=O)[C@H]1O[C@H]1C[C@@H](O[C@H]2C[C@@H](O[C@H]3C[C@](C)(O)C(=O)C(C)O3)[C@@H](O)C(C)O2)[C@H](O)C(C)O1 (stereo not given in full) ?
active

Same read-out for COc1ccc(-c2nn(C(=O)NCCN(C)C)cc2-c2ccncc2)cc1Cl ?
inactive

Entry source: PubChem BioAssay (NCI)
